target: T1, IGF1R-Fc (extracellular domain of human IGF1R aa 1-932 fused to hinge and constant regions of human IgG1) (human, UniProt P08069 31-932)
T1 construct: range 1-932; made in house by transient transfection, purified on Protein A; also called IGF-IR-Fc; not shown: hinge and constant regions of human IgG1
observable: pKd
pKd field: float, defined as -log10 of concentration (mol/L).

Incoming: Please report pKd for the following binder: I1-GS10-E1, His-tagged, non-pegylated (designed binder) MGVSDVPRDLEVVAATPTSLLISWSARLKVARYYRITYGETGGNSPVQEFTVPKNVYTATISGLKPGVDYTITVYAVTRFRDYQPISINYRTEIDKGSGSGSGSGSGSGSGSGSGSVSDVPRDLEVVAATPTSLLISWVAGAEDYQYYRITYGETGGNSPVQEFTVPHDLVTATISGLKPGVDYTITVYAVTDMMHVEYTEHPISINYRTEIDKPSQHHHHHH
Outgoing: 9.57

Incoming: Please report pKd for the following binder: I1-GS10-E3, non-pegylated (designed binder) VSDVPRDLEVVAATPTSLLISWSARLKVARYYRITYGETGGNSPVQEFTVPKNVYTATISGLKPGVDYTITVYAVTRFRDYQPISINYRTEIDKGSGSGSGSGSGSGSGSGSGSVSDVPRDLEVVAATPTSLLISWLPGKLRYQYYRITYGETGGNSPVQEFTVPHDLRTATISGLKPGVDYTITVYAVTNMMHVEYSEYPISINYRTEIDKPSQ
Outgoing: 10.52

***
Incoming: Please report pKd for the following binder: E1-GS10-I1, His-tagged, non-pegylated (designed binder, bispecific EGFR/IGF-IR tandem of two 10Fn3 domains) MGVSDVPRDLEVVAATPTSLLISWVAGAEDYQYYRITYGETGGNSPVQEFTVPHDLVTATISGLKPGVDYTITVYAVTDMMHVEYTEHPISINYRTEIDKGSGSGSGSGSGSGSGSGSGSVSDVPRDLEVVAATPTSLLISWSARLKVARYYRITYGETGGNSPVQEFTVPKNVYTATISGLKPGVDYTITVYAVTRFRDYQPISINYRTEIDKPSQHHHHHH
Outgoing: 9.18

Incoming: Please report pKd for the following binder: I1 IGF-IR 10Fn3-based binder, His-tagged monomer (designed binder) MGVSDVPRDLEVVAATPTSLLISWSARLKVARYYRITYGETGGNSPVQEFTVPKNVYTATISGLKPGVDYTITVYAVTRFRDYQPISINYRTEIDKPSQHHHHHH
Outgoing: 9.96
